Values compiled from ChEMBL document CHEMBL1153282.

Quick note: these are pIC50 numbers for system: Insulin-like growth factor 1 receptor (Homo sapiens)
Sequence (P08069 31-736 limits assumed): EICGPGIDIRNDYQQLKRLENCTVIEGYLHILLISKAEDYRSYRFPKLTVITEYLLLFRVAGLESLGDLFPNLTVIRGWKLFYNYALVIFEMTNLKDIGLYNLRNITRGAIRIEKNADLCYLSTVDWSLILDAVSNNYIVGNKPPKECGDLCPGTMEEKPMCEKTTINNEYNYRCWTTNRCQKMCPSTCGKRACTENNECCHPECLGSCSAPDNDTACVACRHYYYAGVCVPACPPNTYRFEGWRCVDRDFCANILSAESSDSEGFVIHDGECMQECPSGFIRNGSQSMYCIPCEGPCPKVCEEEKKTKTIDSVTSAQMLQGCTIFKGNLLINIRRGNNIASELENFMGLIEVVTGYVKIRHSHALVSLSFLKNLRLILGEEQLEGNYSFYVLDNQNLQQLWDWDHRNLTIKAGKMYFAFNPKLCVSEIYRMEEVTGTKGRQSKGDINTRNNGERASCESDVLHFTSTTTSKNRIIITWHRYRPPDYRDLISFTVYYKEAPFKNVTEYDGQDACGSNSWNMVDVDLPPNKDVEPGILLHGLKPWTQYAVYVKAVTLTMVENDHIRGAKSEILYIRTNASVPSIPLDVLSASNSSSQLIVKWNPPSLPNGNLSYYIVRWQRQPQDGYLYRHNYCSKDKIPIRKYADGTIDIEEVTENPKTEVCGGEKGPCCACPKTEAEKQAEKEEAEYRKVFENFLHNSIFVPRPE
Sequence (P08069 741-1367 limits assumed): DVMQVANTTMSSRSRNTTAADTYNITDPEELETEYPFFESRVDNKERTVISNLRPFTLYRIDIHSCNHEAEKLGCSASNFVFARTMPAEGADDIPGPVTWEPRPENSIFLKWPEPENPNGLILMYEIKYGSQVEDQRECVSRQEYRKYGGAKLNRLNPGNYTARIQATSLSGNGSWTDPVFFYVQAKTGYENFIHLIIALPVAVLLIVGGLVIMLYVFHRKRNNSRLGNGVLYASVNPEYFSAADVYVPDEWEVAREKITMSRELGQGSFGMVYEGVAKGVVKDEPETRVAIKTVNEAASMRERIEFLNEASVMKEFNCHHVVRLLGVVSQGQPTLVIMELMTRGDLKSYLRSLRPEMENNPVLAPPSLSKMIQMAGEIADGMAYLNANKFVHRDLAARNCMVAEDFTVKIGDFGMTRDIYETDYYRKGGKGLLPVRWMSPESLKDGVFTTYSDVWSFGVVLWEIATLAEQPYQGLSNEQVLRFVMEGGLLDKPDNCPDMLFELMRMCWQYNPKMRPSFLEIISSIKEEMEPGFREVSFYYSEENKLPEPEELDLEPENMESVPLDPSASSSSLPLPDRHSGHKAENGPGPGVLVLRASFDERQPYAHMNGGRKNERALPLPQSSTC
pIC50: −log10 of the molar value.
ENDPOINT NAME: pIC50

c1cc(Nc2ncnc3nc[nH]c23)cc(-c2nc3ccccc3s2)c1
5.92
Cc1cc(Nc2ccnc(Nc3cccc(-c4nc5ccccc5s4)c3)n2)n[nH]1
7.00
Fc1cc(-c2nc3ccccc3s2)ccc1Nc1ncnc2cc(Cl)ccc12
5.96
COc1nc(Nc2ccc(-c3nc4ccccc4s3)cc2)c2cc[nH]c2n1
5.36
COc1cc(Nc2ncnc3[nH]ccc23)ccc1-c1nc2ccccc2s1
5.44
c1ccc2sc(-c3ccc(Nc4ncnc5[nH]ccc45)cc3)nc2c1
5.82
O=C(NC(=S)Nc1ccc(O)c(-c2nc3ccccc3s2)c1)c1ccc([N+](=O)[O-])cc1
6.51
